Below are IC50 measurements against Vascular endothelial growth factor receptor 2 (Homo sapiens, UniProt P35968) drawn from the literature.

{"compound": "NC(=O)c1ccc(-c2cnc3[nH]cc(C(=O)c4ccccc4F)c3c2)cc1", "IC50": "≤ 10000 nM"}
{"compound": "COc1cc2ncnc(Nc3ccc(NC(=O)NC(C)C)c(Cl)c3)c2c2c1OCCO2", "IC50": "50 to 500 nM"}
{"compound": "COc1cc(OC)cc(N(CCO)c2ccc3ncc(-c4ccc(N5CCNCC5)cc4)nc3c2)c1", "IC50": "23.4 nM"}
{"compound": "Cn1cc(C(=O)Nc2ccc(Oc3ccnc4cc(OCCCN5CCCCC5)c5c(c34)OCCO5)c(F)c2)c(=O)n(-c2ccc(F)cc2)c1=O", "IC50": "50 to 500 nM"}
{"compound": "CONC(=O)c1cc2c(Oc3ccc(N(C)C(=O)Nc4ccc(F)cc4)cc3)ccnc2cc1OC", "IC50": "9.9 nM"}
{"compound": "COc1cc(OC)cc(N(CC2CC2)c2ccc3ncc(C#Cc4ccncc4)nc3c2)c1", "IC50": "> 1000 nM"}
{"compound": "COc1cc(OC)cc(N(CCNC(C)C)c2ccc3ncc(NCC4CCNCC4)nc3c2)c1", "IC50": "617 nM"}
{"compound": "CC[C@@H]1C(=O)N(C)c2cnc(-n3ccnc3-c3cccc(F)c3)nc2N1C1CCOC1 (some centres unmarked)", "IC50": "> 10000 nM"}

---

A compilation of IC50 values for Vascular endothelial growth factor receptor 2 (Homo sapiens) from the published literature.
measurement.kind: IC50

{"compound": "CNC(=O)OCCN(c1cc(OC)cc(OC)c1)c1ccc2ncc(-c3ccc(NC(=O)OC(C)(C)C)nc3)nc2c1", "test.value": "> 1 µM"}
{"compound": "COc1cc2nccc(Oc3ccc(NC(=O)c4cn(C(C)C)c(C)c(-c5ccc(F)cc5)c4=O)cc3F)c2cc1OC", "test.value": "< 0.1 µM"}
{"compound": "CC(F)(F)c1cc(NC(=O)Nc2cccc(Oc3cc(NC(=O)C4CC4)ncn3)c2)ccc1Cl", "test.value": "0.0087 µM"}
{"compound": "Cc1ccc(F)cc1C(=O)NC[C@@H]1[C@H]2CN(c3ccc(-c4cc(-c5cnn(C)c5)cn5ncc(C#N)c45)cn3)C[C@@H]12", "test.value": "0.01 to 0.05 µM"}
{"compound": "O=C(c1cccc(O)c1)c1c[nH]c2ncc(-c3ccsc3)cc12", "test.value": "≤ 10 µM"}
{"compound": "COc1ccc(-c2cc3nccc(Nc4ccc5[nH]ccc5c4C)c3o2)cc1", "test.value": "0.3 to 3 µM"}
{"compound": "C[C@@H](Nc1ncnc2[nH]c(-c3ccc(OCCCCC(=O)NO)cc3)cc12)c1ccccc1", "test.value": "0.1 to 1 µM"}
{"compound": "CCCS(=O)(=O)Nc1ccc(F)c(C(=O)c2c[nH]c3ncc(-c4cnn(CCN5CCOCC5)c4)cc23)c1F", "test.value": "≤ 10 µM"}
{"compound": "COCCOc1cc2nccc(Oc3ccc(NC(=O)c4c(O)c(C5=CCOCC5)c(C)[n+](C)c4C)cc3F)c2nc1OC", "test.value": "0.1 to 0.3 µM"}
{"compound": "COc1cc(OC)cc(N(CCCO)c2ccc3ncc(-c4cccnc4)nc3c2)c1", "test.value": "0.468 µM"}
{"compound": "Cc1cc(-c2cnc3cc(-c4ccc(C5CNCCN5)cc4)ccn23)c2cc(F)ccc2n1 (stereo not drawn)", "test.value": "36.9 µM"}
{"compound": "CN1CCC(Oc2ccc(NC(=O)Nc3ccc(Oc4ccnc(NC(=O)C5CC5)c4)c(F)c3)cc2C(F)(F)F)CC1", "test.value": "0.0172 µM"}
{"compound": "COc1cc2ncc(Cl)c(Oc3ccc(NC(=S)N4CC(F)(F)C4)c(Cl)c3)c2cc1C(N)=O", "test.value": "0.2 to 1 µM"}
{"compound": "COc1cc(-c2cc3nccc(Nc4ccc5[nH]ccc5c4)c3o2)cc(OC)c1OC", "test.value": "< 0.3 µM"}
{"compound": "CN1CCC(Oc2ccc(C(=O)Nc3n[nH]c4cc(Oc5ccccc5F)ccc34)cc2)CC1", "test.value": "0.437 µM"}
